Field: viability at 28.5 h, 10 µM. Provide a value for each of the molecules that follow.
assay: in vitro; settings: human, hela cells, % viability
One number for each entry, in %.

Incoming: Please look up its viability at 28.5 h, 10 µM: CCC(=O)N(C)C1CCN(c2ncnc3ccccc23)CC1 [CBK304829]
Outgoing: 91.8

I have 3 molecules here; please give me viability at 28.5 h, 10 µM for each one.
1. CC(C)CNC(=O)N1CCN(CCN2CCOCC2)CC1 [CBK155826]
2. COc1ccccc1CN(CC(C)(C)CN)C(=O)NC1C[C@H]1c1ccccc1 (stereo partly shown) [CBK002424C]
3. COc1ccc(CN2CCN(Cc3ccccc3[N+](=O)[O-])CC2)c(OC)c1 [CBK263340]

Outgoing:
88.1
89.6
91

Data credit: paper PMC12040169
